# System: L1210 leukemia ip in BDF1 mice, survival T/C
# assay.procedure: NCI In Vivo Anticancer Drug Screen. Data for tumor model L1210 Leukemia (intraperitoneal) in B6D2F1 (BDF1) mice
# assay.setup: endpoint: mean survival time; dose: 400.0 mg/kg/injection; schedule: Q01DX001 (ip); vehicle: carboxymethylcellulose (CMC); higher = longer survival
Inconclusive results and toxic doses are left out.
quantity.measured: T/C

Here is how some molecules turned out for T/C.
{"molecule": "CN=NNc1nc[nH]c1C(=O)OC", "endpoint.value": "113 % of control"}
{"molecule": "CSc1ccc(OC(=O)Nc2ccc(Cl)cc2)cc1C", "endpoint.value": "93 % of control"}
{"molecule": "O=C(Nc1ccc(S(=O)(=O)N2CCCCC2)cc1)OC(c1ccccc1)(c1ccccc1)c1ccccc1", "endpoint.value": "89 % of control"}
{"molecule": "O=C1/C(=C\\C=C\\c2ccccc2)CCCC/C1=C\\C=C\\c1ccccc1", "endpoint.value": "92 % of control"}
{"molecule": "O=[N+]([O-])c1ccc(N=Cc2ccccc2O)c(O)c1", "endpoint.value": "94 % of control"}

Respectfully, I request T/C for each entry included below.
1. C=CCc1ccc(OC(=O)Nc2ccc(S(=O)(=O)CC)cc2)c(OC)c1
2. O=C(O)CCC(c1ccccc1)(c1ccccc1)c1ccccc1
3. N#CC1(N(O)C(=O)Nc2ccccc2Cl)CCCCC1
4. Cc1cccc(N=Cc2ccccc2O)c1
5. CN1C(=O)CC(/C=C\[N+](=O)[O-])c2ccccc21 (centres undefined)
6. O=C1c2cccnc2C(=O)c2c(O)ccc(O)c21
7. CSc1ncnc2c1ncn2/N=C/c1ccccc1

OUT:
1. 93 % of control
2. 101 % of control
3. 91 % of control
4. 103 % of control
5. 104 % of control
6. 108 % of control
7. 96 % of control

Please supply T/C for each of the following items, keeping them in order.
1. CC1([N+](=O)[O-])COP(=O)(O)OC1 (centres undefined) (tested in a mixture with another compound)
2. COc1ccc(N2CCN(c3c(N)cnc4ccccc34)CC2)c(OC)c1
3. CCC1(C(C)C)SC(N)=NC1=O (centres undefined)
4. CC(=O)OCCC/C(=C\c1c2ccccc2cc2ccccc12)[N+](=O)[O-]
5. ClCCN(CCCl)c1ccc(C=NCCCN=Cc2ccc(N(CCCl)CCCl)cc2Cl)c(Cl)c1
6. Clc1ccc(Cc2ccc(Cl)cc2)cc1

OUT:
107 % of control
97 % of control
96 % of control
96 % of control
95 % of control
102 % of control

Quick one: give me T/C for each item below, same order please.
1. CN(C)c1ccc2c(c1)C(=P(c1ccccc1)(c1ccccc1)c1ccccc1)c1ccccc1-2
2. Nc1ccc2c(c1)Cc1cc(N)c(Br)cc1-2
3. NC1=NC(=O)NC1(c1ccccc1)c1ccccc1
4. CNC(=S)N/N=C/C(CO)=N\NC(=S)NC
5. ClCc1ccc(-c2ccc(CCl)cc2)cc1

OUT:
1: 90 % of control; 2: 94 % of control; 3: 116 % of control; 4: 97 % of control; 5: 105 % of control

IN: Recorded T/C for `C=Cc1cc[n+](CCCCC[n+]2ccc(C=C)cc2)cc1` , please?
OUT: 93 % of control
